Quick reference: pEC50 of the listed items.
# measurementTarget: human activated kallikrein enzyme (Homo sapiens, UniProt P03952)
# Sequence (P03952 391-638 limits assumed): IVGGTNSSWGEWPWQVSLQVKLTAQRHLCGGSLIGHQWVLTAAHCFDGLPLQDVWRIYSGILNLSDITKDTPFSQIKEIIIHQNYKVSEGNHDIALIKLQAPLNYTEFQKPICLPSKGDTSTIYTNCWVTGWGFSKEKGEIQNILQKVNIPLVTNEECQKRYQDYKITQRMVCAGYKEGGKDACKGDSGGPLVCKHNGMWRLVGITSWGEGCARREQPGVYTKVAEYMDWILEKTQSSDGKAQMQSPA
# Sequence (P03952 20-390 partner limits assumed): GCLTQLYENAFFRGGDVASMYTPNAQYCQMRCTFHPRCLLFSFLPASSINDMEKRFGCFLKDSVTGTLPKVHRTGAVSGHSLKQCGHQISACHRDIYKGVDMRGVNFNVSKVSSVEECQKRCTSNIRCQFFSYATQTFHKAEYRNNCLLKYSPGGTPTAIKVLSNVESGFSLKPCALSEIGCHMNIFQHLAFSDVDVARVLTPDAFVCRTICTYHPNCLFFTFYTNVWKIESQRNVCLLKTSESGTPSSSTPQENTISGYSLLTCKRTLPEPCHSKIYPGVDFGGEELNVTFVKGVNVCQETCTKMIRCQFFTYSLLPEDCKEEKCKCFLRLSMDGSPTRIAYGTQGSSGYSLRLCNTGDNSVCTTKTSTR
# procedureText: Plasma kallikrein inhibition, fluorogenic PFR-AMC substrate, 500 pM activated kallikrein format
# Type: biochemical
# conditionsUsed: 500 pM activated kallikrein, 300 uM PFR-AMC, 30 min preincubation, 10 min reaction; read-out: Primary Dose Response Assay: Average EC50
pEC50: −log10 of the molar value.

Task: Query pEC50 on human activated kallikrein enzyme (Homo sapiens, UniProt P03952) for O=C(Nc1cc(N2C[C@@H](O)C[C@@H]2c2cn3cc(C4CC4)ccc3n2)ncn1)[C@H]1C[C@@H]1c1nccc(Cl)n1 (relative stereo)
Output: > 9.00

Task: Query pEC50 on human activated kallikrein enzyme (Homo sapiens, UniProt P03952) for CN1C(=O)CN(c2cc(C3CC3)cn3cc([C@H]4C[C@H](O)CN4c4cc(NC(=O)[C@H]5C[C@@H]5c5cccc(Cl)c5)ncn4)nc23)C1=O
Output: 8.00 to 9.00

Task: Query pEC50 on human activated kallikrein enzyme (Homo sapiens, UniProt P03952) for O=C(Nc1nccc2nn(Cc3cn4cc(C5CC5)ccc4n3)cc12)[C@H]1C[C@@H]1c1cccc(Cl)c1
Output: 8.00 to 9.00

Task: Query pEC50 on human activated kallikrein enzyme (Homo sapiens, UniProt P03952) for Cc1ccnc([C@@]2(F)C[C@@H]2C(=O)Nc2cc(N(C)Cc3cn4cc(C5CC5)cc(N5CC(=O)N(C)C5=O)c4n3)nc(C)n2)n1 (racemic)
Output: > 9.00

Task: Query pEC50 on human activated kallikrein enzyme (Homo sapiens, UniProt P03952) for Cc1ccnc([C@H]2C[C@@H]2C(=O)Nc2ncc(C(F)(F)F)c(OCc3cn4cc(C5CC5)cc(N5CC(=O)N(C)C5=O)c4n3)n2)n1 (racemic)
Output: > 9.00

Let us move to another entry and its pEC50.
Task: Query pEC50 on human activated kallikrein enzyme (Homo sapiens, UniProt P03952) for N#Cc1ccc(Cl)cc1[C@H]1C[C@@H]1C(=O)Nc1cc(NCc2cn3cc(C4CC4)ccc3n2)ccn1 (racemic) [Example 82]
Output: > 9.00

====

# measurementTarget: human activated kallikrein enzyme (Homo sapiens, UniProt P03952)
# procedureText: Plasma kallikrein inhibition, fluorogenic PFR-AMC substrate, 500 pM activated kallikrein format
# Assay type: biochemical
# conditionsUsed: comparative compounds, 500 pM activated kallikrein format; read-out: Primary Dose Response Assay: Average EC50
testReadout: EC50

Solved entries:
Task: Name the recorded EC50 for Clc1cccc([C@H]2C[C@@H]2CNc2cc(NCc3cn4cc(C5CC5)ccc4n3)ncn2)c1 .
Output: 0.1 to 1 µM

Task: Name the recorded EC50 for O=C(N[C@H]1C[C@@H]1c1cccc(Cl)c1)c1cc(NCc2cn3cc(C4CC4)ccc3n2)ncn1 .
Output: 1 to 6 µM

Task: Name the recorded EC50 for O=C(NC1CC1Cc1cccc(Cl)c1)c1cnn(Cc2cn3cc(C4CC4)ccc3n2)c1 (centres unmarked) .
Output: 1 to 6 µM

Task: Name the recorded EC50 for O=C(NCCc1cccc(Br)c1)c1cnn(Cc2cn3cc(C4CC4)ccc3n2)c1 .
Output: 1 to 6 µM

Task: Name the recorded EC50 for O=C(Cc1ncn2ccc(Cl)cc12)Nc1cc(NCc2cn3cc(C4CC4)ccc3n2)ncn1 .
Output: 0.001 to 0.01 µM

Continuing:
Task: Name the recorded EC50 for O=C(Nc1cc(NCc2cn3cc(C4CC4)ccc3n2)ncn1)NC1CC1c1cccc(Cl)c1 (centres unmarked) .
Output: 1 to 6 µM

Task: Name the recorded EC50 for O=c1ccc(NCc2cn3cc(C4CC4)ccc3n2)cn1NC[C@H]1C[C@@H]1c1cccc(Cl)c1 .
Output: 1 to 6 µM

Task: Name the recorded EC50 for O=C(NCc1cccc(Cl)c1)c1cnn(Cc2cn3cc(C4CC4)ccc3n2)c1 .
Output: 1 to 6 µM
